# test.system: Recombinant human TRKC (Homo sapiens)
# Sequence (Q16288 32-839): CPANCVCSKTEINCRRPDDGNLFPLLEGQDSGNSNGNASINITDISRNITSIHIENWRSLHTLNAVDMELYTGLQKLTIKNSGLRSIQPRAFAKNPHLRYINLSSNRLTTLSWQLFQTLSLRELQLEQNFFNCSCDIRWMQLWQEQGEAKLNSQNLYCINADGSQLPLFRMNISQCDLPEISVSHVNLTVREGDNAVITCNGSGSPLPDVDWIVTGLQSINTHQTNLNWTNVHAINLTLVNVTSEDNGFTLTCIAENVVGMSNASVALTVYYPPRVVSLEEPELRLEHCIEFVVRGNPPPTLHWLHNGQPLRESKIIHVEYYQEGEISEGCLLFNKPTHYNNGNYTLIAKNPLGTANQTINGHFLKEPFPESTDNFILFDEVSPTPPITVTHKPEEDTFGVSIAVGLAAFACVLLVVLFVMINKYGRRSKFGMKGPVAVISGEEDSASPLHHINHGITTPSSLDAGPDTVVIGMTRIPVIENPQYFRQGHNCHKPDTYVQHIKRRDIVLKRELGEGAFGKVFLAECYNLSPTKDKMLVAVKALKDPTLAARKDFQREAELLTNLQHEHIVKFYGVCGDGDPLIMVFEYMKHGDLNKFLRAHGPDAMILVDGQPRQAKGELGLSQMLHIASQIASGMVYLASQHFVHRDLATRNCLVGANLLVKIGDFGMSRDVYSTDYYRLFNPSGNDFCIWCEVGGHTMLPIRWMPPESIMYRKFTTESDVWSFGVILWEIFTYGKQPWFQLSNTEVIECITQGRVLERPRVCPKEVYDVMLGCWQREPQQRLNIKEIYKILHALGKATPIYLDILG
# method.summary: In vitro activity test on TRKC kinase (HTRF KinEASE TK)
# test.context: 25.64 μM ATP, 40 min
pIC50: −log10 of the molar value.

| compound | pIC50 |
| --- | --- |
| O[C@H]1CCN(c2cnn(-c3ncnc4ccc(N5C[C@@H](F)C[C@@H]5c5cc(F)ccc5F)nc34)c2)C1 | > 9.00 |
| O[C@H]1CCN(c2ccc(-c3ncnc4ccc(N5C[C@@H](F)C[C@@H]5c5cc(F)ccc5F)nc34)cn2)C1 | > 9.00 |
| OC[C@@H](O)CN1CCC(n2cc(-c3c(Cl)cnc4ccc(N5C[C@@H](F)C[C@@H]5c5cc(F)ccc5F)nc34)cn2)CC1 | > 9.00 |
| O=C1N(c2ccnc3ccc(N4C[C@@H](F)C[C@@H]4c4cc(F)ccc4F)nc23)CC12CCNCC2 | > 9.00 |
| O=C(Nc1ccnc2ccc(N3CCC[C@@H]3c3cc(F)ccc3F)nc12)c1cnc(N2CC[C@H](O)C2)nc1 | > 8.00 |
| Fc1ccc(F)c([C@H]2C[C@H](F)CN2c2ccc3ncc(F)c(-c4noc(C5CCNCC5)n4)c3n2)c1 | > 8.00 |
| COC1(C)CC(n2cc(-c3c(Cl)cnc4ccc(N5C[C@@H](F)C[C@@H]5c5cc(F)ccc5F)nc34)cn2)C1 (some centres unmarked) | > 8.00 |
| Fc1ccc(F)c([C@H]2C[C@H](F)CN2c2ccc3ncc(Cl)c(-c4cnc(N5CCOCC5)s4)c3n2)c1 | > 8.00 |
| Fc1ccc(F)c([C@H]2C[C@H](F)CN2c2ccc3ncc(Cl)c(-c4cnn([C@@H]5CCNC5)c4)c3n2)c1 | > 9.00 |
| Fc1ccc(F)c([C@H]2C[C@H](F)CN2c2ccc3ncc(Cl)c(-c4ccn(C5CCNCC5)c4)c3n2)c1 | > 9.00 |
| O=C1CNCCN1c1ccc(-c2c(F)cnc3ccc(N4C[C@@H](F)C[C@@H]4c4cc(F)ccc4F)nc23)cn1 | > 9.00 |
| O[C@@H]1CN=C(Nc2ccnc3ccc(N4C[C@@H](F)C[C@@H]4c4cc(F)ccc4F)nc23)OC1 | > 9.00 |
| COc1ncc(F)cc1[C@H]1CCCN1c1ccc2ncc(Cl)c(-c3cnn(C4CCNCC4)c3)c2n1 | > 8.00 |
| OC1CCN(c2nc(-c3ncnc4ccc(N5C[C@@H](F)C[C@@H]5c5cc(F)ccc5F)nc34)no2)CC1 | > 8.00 |
| O[C@H]1CCN(c2ncnc3ccc(N4C[C@@H](F)C[C@@H]4c4cc(F)ccc4F)nc23)C1 | > 9.00 |
| O=C(Nc1ccnc2ccc(N3CCC[C@@H]3c3cc(F)ccc3F)nc12)N1CC[C@H](O)C1 | > 9.00 |
| CC1(C)CC(n2cc(-c3ccnc4ccc(N5CCC[C@@H]5c5cc(F)ccc5F)nc34)cn2)CCN1 (some centres unmarked) | > 8.00 |
| Fc1ccc(F)c([C@H]2C[C@H](F)CN2c2ccc3ncnc(-c4cnn(C5CCNCC5)c4)c3n2)c1 | > 9.00 |
| COc1ccc(CNc2ccnc3ccc(N4CCC[C@@H]4c4cc(F)ccc4F)nc23)cc1 | > 7.30 |
| CC1(C)CC(n2cc(-c3ccnc4ccc(N5C[C@@H](F)C[C@@H]5c5cc(F)ccc5F)nc34)cn2)CCN1 (some centres unmarked) | > 9.00 |
